Reported values of In vitro activity compared with native peptide (%) vs GIP (cAMP EC50) for individual entries
Biological target: T1, human GIP receptor (human, UniProt P48546 22-466)
T1 sequence (looked up): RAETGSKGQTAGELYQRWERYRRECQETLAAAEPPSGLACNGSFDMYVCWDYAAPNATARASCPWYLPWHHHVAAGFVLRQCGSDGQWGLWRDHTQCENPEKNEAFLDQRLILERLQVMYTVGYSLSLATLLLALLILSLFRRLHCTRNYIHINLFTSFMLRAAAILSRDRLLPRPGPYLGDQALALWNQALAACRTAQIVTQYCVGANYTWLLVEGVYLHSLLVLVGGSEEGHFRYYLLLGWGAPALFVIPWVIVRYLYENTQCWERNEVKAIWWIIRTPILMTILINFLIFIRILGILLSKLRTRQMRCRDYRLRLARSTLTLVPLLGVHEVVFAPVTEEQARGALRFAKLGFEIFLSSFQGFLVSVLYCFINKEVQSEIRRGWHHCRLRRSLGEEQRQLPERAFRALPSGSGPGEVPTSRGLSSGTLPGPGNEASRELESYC
Assay: cell-based or functional assay
Bridge positions count the residues as written; N and C are the ends. Square brackets hold non-standard residues; d marks the D form. Ends that are not written are not given here. * marks the point of attachment. Acetyl(2-(4-imidazolyl)) = O=C(Cc1c[nH]cn1)*; Aib = CC(C)(N)C(=O)O
measure: In vitro activity compared with native peptide (%) vs GIP (cAMP EC50)

>>> recorded_measurement("Y[Aib]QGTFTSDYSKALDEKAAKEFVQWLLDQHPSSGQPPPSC (bridge 16-20) [triple agonist of SEQ ID NO: 100]")
118
>>> recorded_measurement("[Acetyl(2-(4-imidazolyl))][Aib]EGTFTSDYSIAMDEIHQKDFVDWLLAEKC (bridge 16-20) [triple agonist of SEQ ID NO: 91]")
0.3
>>> recorded_measurement("H[Aib]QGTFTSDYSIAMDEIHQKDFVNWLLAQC (bridge 16-20) [triple agonist of SEQ ID NO: 55]")
2.4
